System: KM12 colon
Assay: NCI-60 one-dose screen, 48 h (100 = growth as untreated, 0 = no growth, -100 = all killed)
Details: 10 µM unless noted
The panel holds about 83,000 compounds, 20% with a hit somewhere; the sample as a whole holds those more often.
valueKind: growth (%)
Expressed in %, but write only the number.

Task: Consider the molecule `COc1ccc(-c2cc(-c3cccnc3)nc3sc4c(=O)n(-c5ccc(C)cc5)nnc4c23)cc1OC` . State its measured growth.
Output: 103

Task: Please list growth recorded for the molecule `CCN(CC)Cc1cc(Nc2c3ccc(Cl)cc3nc3c(C)cccc23)ccc1O`
Output: -45.4

* * *

Tested on: HOP-92 NSCLC
Test: NCI-60 one-dose screen, 48 h
Details: 10 µM unless noted
This is part of a sample that, as a whole, favours compounds with a hit. Of some 83,000 tested, about 20% had one in any assay. Activity calls are given as the source filed them. The calls were made as follows: active = growth percent below 10; inactive = the rest.
// one of active, inactive, no free text

Before answering, review these 4 worked examples.
>>> cat("CSc1[nH]c2ncnc(N)c2c1C#N")
"inactive"
>>> cat("C=CC[N+]1(CC)CCN=C1CCCCCCCCCCCCCCCCC (stereo not given)")
"active"
>>> cat("COc1cnc2c(c1)C(=O)c1c-2n(CCCBr)c(=O)c2cc([N+](=O)[O-])ccc12")
"inactive"
>>> cat("CC(=O)OCC1OC(OC2=C(CC=C(Cl)Cl)C(=O)c3ccccc3C2=O)C(OC(C)=O)C(OC(C)=O)C1OC(C)=O (stereo not given)")
"active"

Now consider the entry below.
Task: Hey, what did the test say about CN1CCCCC1CCN1c2ccccc2Sc2ccc(Cl)cc21 (stereo not given) ?
Output: inactive

* * *

System: UACC-62 melanoma
Assay: NCI-60 one-dose screen, 48 h
Details: 10 µM unless noted
Method: Growth inhibition of the UACC-62 human tumor cell line is measured as a screen for anti-cancer activity. Cells are grown in 96 well plates and exposed to the test compound for 48 hours. Compounds are tested at a single concentration, which is 10^-5 M for most compounds. The reported endpoint is percent growth (GI% or GIPRCNT), where numbers from 0 - 100% represent growth inhibition, and numbers from -100% - 0 represent cell death. For example, a value of 40 represents 60% growth inhibition. […]
The panel holds about 83,000 compounds, 20% with a hit somewhere; the sample as a whole holds those more often. The source made the active and inactive calls. How the source made its calls: active means growth percent below 10; inactive means the rest.
Valid outcomes are listed here; reply with one: active, inactive

Take a look at these entries with their results.
>>> cat("CC1=N/C(=C\\c2cccc(Br)c2)C(=O)O1")
"inactive"
>>> cat("CN1C2CCC1/C(=C\\c1ccc(Cl)cc1)C1=C2[C@@H](c2ccc(Cl)cc2)C(C#N)=C(N)O1 (stereo not given in full)")
"inactive"
>>> cat("Cc1cc2c(cc1C)NC1=C(N2)OC(c2c3ccccc3cc3ccccc23)C1=O (stereo not given)")
"active"

Task: What is the recorded call for this compound in the test? `CCOC(=O)CC(C)=N`
Output: inactive

* * *

Tested on: HCT-15 colon
Assay: NCI-60 one-dose screen, 48 h
Conditions: 10 µM unless noted
Compounds without any hit were thinned out: in the full panel of roughly 83,000, 20% have a hit. Activity calls are given as the source filed them. The calls were made as follows: active = growth percent below 10; inactive = the rest.
# valid calls are active, inactive; nothing else

>>> cat("N=S(=O)(NC(=O)c1ccc(Cl)cc1Cl)c1ccc(Br)s1 (stereo not drawn)")
"inactive"
>>> cat("O=C(CN1CCN(c2cc3c(cc2F)c(=O)c(C(=O)O)cn3C2CC2)CC1)Nc1cc(=O)[nH]c(=O)[nH]1")
"inactive"
>>> cat("Cn1c2ccccc2c2c3c(c4c5ccccc5n(CCCCCC#N)c4c21)C(=O)N(O)C3=O")
"inactive"

Task: # lookup: test call for CN1Cc2c(cc(CN3CCCCC3)n2C)C(c2ccc(Br)cc2)C1 (stereo not drawn)
Output: inactive

Task: Would you mind telling me which call this test gave `CC(C)(C)n1cc(-c2ccnc(NCCNS(=O)(=O)c3ccccc3)c2)c(-c2cccc(O)c2)n1` ?
Output: active

Task: So what was the verdict on `CNC(=O)c1cc(Oc2ccc3nc(NC(=O)Nc4ccc(CN5CCOCC5)c(C(F)(F)F)c4)sc3c2)ccn1` in this test?
Output: inactive

Task: What did this assay record as the result for `CN[C@@]12CC3(C=CC(=O)C=C3)O[C@]1(Cc1ccc(OC)cc1)N(C)C(=O)N2` ?
Output: active

Task: Tell me the recorded outcome of this test for `O=C(Nc1cccc2[nH]c(C(F)(F)F)nc12)c1ccc(Br)cc1F` .
Output: inactive

Task: Status in this test for `COc1ccc(-c2cc(-c3ccc(N(C)C)cc3)nc(NC(=O)c3ccncc3)n2)cc1` ?
Output: inactive
